Biological target: L858R/T790M/C797S EGFR (Homo sapiens, UniProt P00533, C797S/L858R/T790M)
Construct: expressed in transfected cells; host or cells: H1975 clone #25 (lentiviral over-expression, endogenous EGFR knocked out by sgRNA)
Sequence (P00533 25-1210 T790M/C797S/L858R): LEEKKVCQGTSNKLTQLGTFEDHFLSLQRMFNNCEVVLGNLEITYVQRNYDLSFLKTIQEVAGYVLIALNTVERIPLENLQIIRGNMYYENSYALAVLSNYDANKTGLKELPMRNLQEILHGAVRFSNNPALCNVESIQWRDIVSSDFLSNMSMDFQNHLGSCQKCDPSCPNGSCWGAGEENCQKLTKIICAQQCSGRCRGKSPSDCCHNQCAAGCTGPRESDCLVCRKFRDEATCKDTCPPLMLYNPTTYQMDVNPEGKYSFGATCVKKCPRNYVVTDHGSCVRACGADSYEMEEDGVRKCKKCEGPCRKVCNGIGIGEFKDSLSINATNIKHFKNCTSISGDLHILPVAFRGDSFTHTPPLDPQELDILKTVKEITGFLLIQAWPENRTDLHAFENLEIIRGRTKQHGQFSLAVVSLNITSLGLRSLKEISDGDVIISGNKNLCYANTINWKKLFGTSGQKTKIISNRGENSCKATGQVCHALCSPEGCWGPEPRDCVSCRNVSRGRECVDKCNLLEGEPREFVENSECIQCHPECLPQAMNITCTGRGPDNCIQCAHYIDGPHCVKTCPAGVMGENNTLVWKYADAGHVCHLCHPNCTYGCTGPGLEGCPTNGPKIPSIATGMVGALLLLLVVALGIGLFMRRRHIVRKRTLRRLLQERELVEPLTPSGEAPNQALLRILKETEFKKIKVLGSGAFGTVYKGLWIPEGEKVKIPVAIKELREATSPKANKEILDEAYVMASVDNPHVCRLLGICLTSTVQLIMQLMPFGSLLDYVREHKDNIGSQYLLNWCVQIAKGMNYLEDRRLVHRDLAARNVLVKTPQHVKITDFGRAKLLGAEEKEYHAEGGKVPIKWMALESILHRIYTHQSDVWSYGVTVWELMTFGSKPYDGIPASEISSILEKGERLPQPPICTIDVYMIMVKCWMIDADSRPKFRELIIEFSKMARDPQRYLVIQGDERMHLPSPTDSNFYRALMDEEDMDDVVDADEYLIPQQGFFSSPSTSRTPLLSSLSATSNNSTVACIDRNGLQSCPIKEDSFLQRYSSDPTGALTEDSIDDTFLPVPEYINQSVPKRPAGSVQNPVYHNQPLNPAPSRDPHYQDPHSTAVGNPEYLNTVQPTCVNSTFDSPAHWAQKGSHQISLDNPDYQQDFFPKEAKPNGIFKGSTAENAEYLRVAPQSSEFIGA
Experiment: EGFR degradation HTRF assay in H1975-clone #25 (LTC) cells
Type: cell-based
Settings: H1975 # 25-LTC (L858R/T790M/C797S), 16h treatment, HTRF
experimentalReadout: DC50 (nM)
Report the value in nM with no unit label.

// field: DC50; key: Cc1cc2cc(n1)-c1cnn(C)c1OCCC[C@@H](C)CN1/C(=N/C2=O)Nc2ccc(N3CCN(CC4CN(c5cc(F)c([C@H]6CCC(=O)NC6=O)c(F)c5)C4)[C@@H](C#N)C3)cc21 ; value = 1.41

// field: DC50; key: Cc1cc2cc(n1)-c1cnn(C)c1OCCC[C@@H](C)CN1/C(=N/C2=O)Nc2ccc(CN3CCN(C(=O)[C@@H]4CCN(c5cc(F)c([C@H]6CCC(=O)NC6=O)c(F)c5)C4)C[C@@H]3CO)cc21 ; value = 0.731

// field: DC50; key: Cc1cc2cc(n1)-c1cnn(C)c1OCCC[C@@H](C)CN1/C(=N/C2=O)Nc2ccc(CN3CCN(CC4CN(c5cc(F)c([C@H]6CCC(=O)NC6=O)c(F)c5)C4)CC3)c(C)c21 ; value = 1.89

// field: DC50; key: Cc1cc2cc(n1)-c1cnn(C)c1OCC[C@@H]1C[C@H]1CN1/C(=N/C2=O)Nc2ccc(N3CCN(C4CCN(c5cnc(C6CCC(=O)NC6=O)cc5C)CC4)CC3)cc21 (stereo partly drawn) ; value = 0.849

// field: DC50; key: Cc1cc2cc(n1)-c1cnn(C)c1OCC[C@H]1C[C@@H]1CN1/C(=N/C2=O)Nc2ccc(NC3CN(C4CCN(c5cc(F)c([C@H]6CCC(=O)NC6=O)c(F)c5)CC4)C3)cc21 ; value = 0.537

// field: DC50; key: Cc1cc2cc(n1)-c1cnn(C)c1OCCC[C@@H](C)CN1/C(=N/C2=O)Nc2ccc(C(=O)N[C@H]3CCN(CCc4cc(F)c([C@H]5CCC(=O)NC5=O)c(F)c4)[C@@H](C)C3)cc21 ; value = 0.429

// field: DC50; key: Cc1cc2cc(n1)-c1cnn(C)c1OCCCC1(CC1)CN1/C(=N/C2=O)Nc2ccc(C(=O)N(C)C3CCN(CCc4cc(F)c([C@H]5CCC(=O)NC5=O)c(F)c4)CC3)cc21 ; value = 0.546

// field: DC50; key: Cc1cc2cc(n1)-c1cnn(C)c1OCCC[C@@H](C)CN1/C(=N/C2=O)Nc2ccc(N3CCN(CC4CN(c5cc(F)c([C@H]6CCC(=O)NC6=O)c(F)c5)C4)[C@H](CO)C3)cc21 ; value = 0.881

// field: DC50; key: Cc1cc2cc(n1)-c1cnn(C)c1OCCC[C@@H](C)CN1/C(=N/C2=O)Nc2ccc(N3CCN([C@H]4C[C@H](Nc5cc(F)c([C@H]6CCC(=O)NC6=O)c(F)c5)C4)CC3)cc21 (single isomer, unassigned) ; value = 2.1

// field: DC50; key: Cc1cc2cc(n1)-c1cnn(C)c1OCCC[C@@H](C)CN1/C(=N/C2=O)Nc2ccc(N3CCN(CCN(C)c4ccc5c(c4)CN([C@H]4CCC(=O)NC4=O)C5=O)CC3)cc21 ; value = 0.677

// field: DC50; key: Cc1cc2cc(n1)-c1cnn(C)c1OCCC[C@@H](C)CN1/C(=N/C2=O)Nc2ccc(N3CCC(C(=O)N4CCC(Oc5cc(F)c([C@H]6CCC(=O)NC6=O)c(F)c5)CC4)CC3)cc21 ; value = 1.12

// field: DC50; key: Cc1cc2cc(n1)-c1cnn(C)c1OCCC[C@@H](C)CN1/C(=N/C2=O)Nc2ccc(C(=O)N(C)C3CCN(CCc4cccc5c4C(C)(C)C(=O)N5[C@H]4CCC(=O)NC4=O)CC3)cc21 ; value = 0.503
